# reported IC50; entries follow
Target: Acetylcholinesterase (Mus musculus, UniProt P21836)
Sequence (P21836 whole entry): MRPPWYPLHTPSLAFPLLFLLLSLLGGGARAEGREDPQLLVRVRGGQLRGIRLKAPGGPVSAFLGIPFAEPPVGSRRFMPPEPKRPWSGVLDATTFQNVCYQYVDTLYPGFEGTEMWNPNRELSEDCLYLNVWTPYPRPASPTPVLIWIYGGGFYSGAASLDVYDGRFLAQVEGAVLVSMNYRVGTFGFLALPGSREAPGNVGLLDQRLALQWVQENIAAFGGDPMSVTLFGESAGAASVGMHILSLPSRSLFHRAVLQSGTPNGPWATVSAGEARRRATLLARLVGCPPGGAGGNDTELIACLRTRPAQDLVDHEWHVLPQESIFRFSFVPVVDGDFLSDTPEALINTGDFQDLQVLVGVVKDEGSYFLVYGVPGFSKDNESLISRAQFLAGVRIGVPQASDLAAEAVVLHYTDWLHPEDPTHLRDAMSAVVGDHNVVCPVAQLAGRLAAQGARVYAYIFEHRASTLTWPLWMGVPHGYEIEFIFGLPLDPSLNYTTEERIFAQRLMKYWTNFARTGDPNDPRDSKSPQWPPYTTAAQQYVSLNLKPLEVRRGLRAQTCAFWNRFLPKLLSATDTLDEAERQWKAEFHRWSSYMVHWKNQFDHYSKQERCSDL
Assay: biochemical
Description: Inhibition of Acetylcholinesterase activity in mouse brain homogenate
Please reply with the bare figure in nM and do not write the unit itself.

Worked examples, 5 compounds total:
[[record]]
compound = "COc1cc2c(cc1OC)C(=O)C(CC1CCN(Cc3cccc([N+](=O)[O-])c3)CC1)C2 (configuration not stated)"
property_name = "IC50"
endpoint_result = 4

[[record]]
compound = "COc1cc2c(cc1OC)C(=O)C(CC1CCN(CC3CCCCC3)CC1)C2 (configuration not stated)"
property_name = "IC50"
endpoint_result = 8.9

[[record]]
compound = "COc1cc2c(cc1OC)CC(CC1CCN(Cc3ccccc3)CC1)=C2"
property_name = "IC50"
endpoint_result = 4400

[[record]]
compound = "COc1cc2c(cc1OC)C(=O)C(CN1CCN(Cc3ccccc3)CC1)C2 (configuration not stated)"
property_name = "IC50"
endpoint_result = 94

[[record]]
compound = "COc1cc2c(cc1OC)C(=O)C(CC1CCN(Cc3ccccc3C)CC1)C2 (configuration not stated)"
property_name = "IC50"
endpoint_result = 10


Now for the compound whose IC50 we want.
Ask: I have this compound here, COc1cc2c(cc1OC)C(=O)C(CC1CCN(Cc3cccc(C)c3)CC1)C2 (configuration not stated) , and I need its recorded IC50.
Reply: 2.7

###

Entries annotated with measured IC50
biological target: Acetylcholinesterase (Mus musculus, UniProt P21836)
The figure you give is taken to be in nM; do not add the unit.

[[record]]
compound = "COc1cc2c(cc1OC)C(=O)C(CC1CCN(CCc3ccccc3)CC1)C2 (stereo not given)"
scale_unit = "nM"
endpoint_result = 180

[[record]]
compound = "COc1cc2c(cc1OC)C(O)C(CC1CCN(Cc3ccccc3)CC1)C2 (stereo not given)"
scale_unit = "nM"
endpoint_result = 300

[[record]]
compound = "COc1cc2c(cc1OC)C(=O)/C(=C/CC1CCN(Cc3ccccc3)CC1)C2"
scale_unit = "nM"
endpoint_result = 150

[[record]]
compound = "COc1cc2c(cc1OC)C(=O)/C(=C/C1CCN(Cc3ccccc3)CC1)C2"
scale_unit = "nM"
endpoint_result = 13


Ask: Query: IC50; subject: COc1cc2c(cc1OC)C(=O)C(CC1CCN(Cc3ccc([N+](=O)[O-])cc3)CC1)C2 (stereo not given)
Reply: 100

Numbers sourced from ChEMBL document CHEMBL1126449.
